Experiment: Cytotoxicity against human HGF cells after 48 hrs by MTT assay
Format: cell-based
recorded-endpoint: CC50 at 48 h (µM)
Reply numerically in µM, unit not repeated.

Consider the worked cases shown below.
compound=O=C(O[C@@H]1O[C@@H]2COC(=O)c3cc(O)c(O)c(O)c3-c3c(cc(O)c(O)c3O)C(=O)O[C@H]2[C@H](OC(=O)c2cc(O)c(O)c(O)c2)[C@H]1OC(=O)c1cc(O)c(O)c(O)c1Oc1cc2c(c(O)c1O)Oc1cc(cc(O)c1O)C(=O)O[C@@H]1O[C@@H]3COC(=O)c4cc(O)c(O)c(O)c4-c4c(cc(O)c(O)c4O)C(=O)O[C@H]3[C@H](OC(=O)c3cc(O)c(O)c(O)c3)[C@H]1OC2=O)c1cc(O)c(O)c(O)c1 test_result=177
compound=O=C(O)c1cc(O)c(O)c(Oc2c(C(=O)O[C@H]3[C@H](OC(=O)c4cc(O)c(O)c(O)c4)O[C@@H]4COC(=O)c5cc(O)c(O)c(O)c5-c5c(cc(O)c(O)c5O)C(=O)O[C@H]4[C@@H]3OC(=O)c3cc(O)c(O)c(O)c3O)cc(O)c(O)c2O)c1 test_result=218
compound=O=C1O[C@@H]2O[C@@H]3COC(=O)c4cc(O)c(O)c(O)c4-c4c(cc(O)c(O)c4O)C(=O)O[C@H]3[C@H](OC(=O)c3cc(O)c(O)c(O)c3)[C@H]2OC(=O)c2cc(Oc3c(C(=O)O[C@@H]4[C@@H](OC(=O)c5cc(O)c(O)c(O)c5)[C@@H]5OC(=O)c6cc(O)c(O)c(O)c6-c6c(cc(O)c(O)c6O)C(=O)OC[C@H]5O[C@H]4O)cc(O)c(O)c3O)c(O)c(O)c2Oc2cc1cc(O)c2O test_result=274

# lookup: CC50 at 48 h of `O=C(O)c1cc(O)c(O)c(Oc2c(C(=O)O[C@@H]3[C@@H](OC(=O)c4cc(O)c(O)c(O)c4O)[C@@H]4OC(=O)c5cc(O)c(O)c(O)c5-c5c(cc(O)c(O)c5O)C(=O)OC[C@H]4O[C@H]3O)cc(O)c(O)c2O)c1`
337

What value of CC50 at 48 h has been reported for the following compound? `O=C1O[C@@H]2O[C@@H]3COC(=O)c4cc(O)c(O)c(O)c4-c4c(cc(O)c(O)c4O)C(=O)O[C@H]3[C@H](OC(=O)c3cc(O)c(O)c(O)c3)[C@H]2OC(=O)c2cc(Oc3c(C(=O)O)cc(O)c(O)c3O)c(O)c(O)c2Oc2cc1cc(O)c2O`
325

Need CC50 at 48 h, item `O=C(O[C@@H]1O[C@@H]2COC(=O)c3cc(O)c(O)c(O)c3-c3c(cc(O)c(O)c3O)C(=O)O[C@H]2[C@H](OC(=O)c2cc(O)c(O)c(O)c2)[C@H]1OC(=O)c1cc(O)c(O)c(O)c1Oc1cc2c(c(O)c1O)Oc1cc(cc(O)c1O)C(=O)O[C@@H]1O[C@H](CO)[C@@H](O)[C@H](OC(=O)c3cc(O)c(O)c(O)c3)[C@H]1OC2=O)c1cc(O)c(O)c(O)c1`
318

----------
System: HSC-4
Experiment: Cytotoxicity against human HSC4 cells after 48 hrs by MTT assay
Format: functional
Conditions: HSC-4, 48 h
// values below are reported CC50
Form entry: value (µM) — number only.

These recorded examples may help you get a feel for the data.
compound=O=C1O[C@@H]2O[C@@H]3COC(=O)c4cc(O)c(O)c(O)c4-c4c(cc(O)c(O)c4O)C(=O)O[C@H]3[C@H](OC(=O)c3cc(O)c(O)c(O)c3)[C@H]2OC(=O)c2cc(Oc3c(C(=O)O[C@@H]4[C@@H](OC(=O)c5cc(O)c(O)c(O)c5)[C@@H]5OC(=O)c6cc(O)c(O)c(O)c6-c6c(cc(O)c(O)c6O)C(=O)OC[C@H]5O[C@H]4O)cc(O)c(O)c3O)c(O)c(O)c2Oc2cc1cc(O)c2O test_result=59.3
compound=O=C(O)c1cc(O)c(O)c(Oc2c(C(=O)O[C@@H]3[C@@H](OC(=O)c4cc(O)c(O)c(O)c4O)[C@@H]4OC(=O)c5cc(O)c(O)c(O)c5-c5c(cc(O)c(O)c5O)C(=O)OC[C@H]4O[C@H]3O)cc(O)c(O)c2O)c1 test_result=60

What measured CC50 goes with `O=C(O[C@@H]1O[C@@H]2COC(=O)c3cc(O)c(O)c(O)c3-c3c(cc(O)c(O)c3O)C(=O)O[C@H]2[C@H](OC(=O)c2cc(O)c(O)c(O)c2)[C@H]1OC(=O)c1cc(O)c(O)c(O)c1Oc1cc2c(c(O)c1O)Oc1cc(cc(O)c1O)C(=O)O[C@@H]1O[C@H](CO)[C@@H](O)[C@H](OC(=O)c3cc(O)c(O)c(O)c3)[C@H]1OC2=O)c1cc(O)c(O)c(O)c1` ?
54.3

----------
Experiment: Cytotoxicity against human HPC cells after 48 hrs by MTT assay
Assay type: cell-based
recorded-endpoint: CC50 at 48 h (µM)
// return numeric value only (unit: µM, not printed)

compound="O=C(O)c1cc(O)c(O)c(Oc2c(C(=O)O[C@@H]3[C@@H](OC(=O)c4cc(O)c(O)c(O)c4O)[C@@H]4OC(=O)c5cc(O)c(O)c(O)c5-c5c(cc(O)c(O)c5O)C(=O)OC[C@H]4O[C@H]3O)cc(O)c(O)c2O)c1 [REMURIN B]" test_result=255

Fill in: CC50 at 48 h of O=C(O[C@@H]1O[C@@H]2COC(=O)c3cc(O)c(O)c(O)c3-c3c(cc(O)c(O)c3O)C(=O)O[C@H]2[C@H](OC(=O)c2cc(O)c(O)c(O)c2)[C@H]1OC(=O)c1cc(O)c(O)c(O)c1Oc1cc2c(c(O)c1O)Oc1cc(cc(O)c1O)C(=O)O[C@@H]1O[C@@H]3COC(=O)c4cc(O)c(O)c(O)c4-c4c(cc(O)c(O)c4O)C(=O)O[C@H]3[C@H](OC(=O)c3cc(O)c(O)c(O)c3)[C@H]1OC2=O)c1cc(O)c(O)c(O)c1 [HIRTELLIN B] is ___
78.5

What value of CC50 at 48 h has been recorded for this entry: O=C(O)c1cc(O)c(O)c(Oc2c(C(=O)O[C@H]3[C@H](OC(=O)c4cc(O)c(O)c(O)c4)O[C@@H]4COC(=O)c5cc(O)c(O)c(O)c5-c5c(cc(O)c(O)c5O)C(=O)O[C@H]4[C@@H]3OC(=O)c3cc(O)c(O)c(O)c3O)cc(O)c(O)c2O)c1 [REMURIN A]
170

Could you share which CC50 at 48 h value was measured for O=C1O[C@@H]2O[C@@H]3COC(=O)c4cc(O)c(O)c(O)c4-c4c(cc(O)c(O)c4O)C(=O)O[C@H]3[C@H](OC(=O)c3cc(O)c(O)c(O)c3)[C@H]2OC(=O)c2cc(Oc3c(C(=O)O[C@@H]4[C@@H](OC(=O)c5cc(O)c(O)c(O)c5)[C@@H]5OC(=O)c6cc(O)c(O)c(O)c6-c6c(cc(O)c(O)c6O)C(=O)OC[C@H]5O[C@H]4O)cc(O)c(O)c3O)c(O)c(O)c2Oc2cc1cc(O)c2O [TAMARIXININ A] ?
199

Return reported CC50 at 48 h; argument: O=C(O[C@@H]1O[C@@H]2COC(=O)c3cc(O)c(O)c(O)c3-c3c(cc(O)c(O)c3O)C(=O)O[C@H]2[C@H](OC(=O)c2cc(O)c(O)c(O)c2)[C@H]1OC(=O)c1cc(O)c(O)c(O)c1Oc1cc2c(c(O)c1O)Oc1cc(cc(O)c1O)C(=O)O[C@@H]1O[C@H](CO)[C@@H](O)[C@H](OC(=O)c3cc(O)c(O)c(O)c3)[C@H]1OC2=O)c1cc(O)c(O)c(O)c1 [NILOTININ D8]
278

Look at this compound and give its reported CC50 at 48 h. O=C1O[C@@H]2O[C@@H]3COC(=O)c4cc(O)c(O)c(O)c4-c4c(cc(O)c(O)c4O)C(=O)O[C@H]3[C@H](OC(=O)c3cc(O)c(O)c(O)c3)[C@H]2OC(=O)c2cc(Oc3c(C(=O)O)cc(O)c(O)c3O)c(O)c(O)c2Oc2cc1cc(O)c2O [NILOTININ M4]
263
